tested on: HCoV-229E; design: species or system Huh-7; HTS, protection from HCoV-229E induced cell death, luminescent cell viability (CellCounting-Lite 2.0), inhibition rate; conditions: 24 h post infection, 1 h compound pre-incubation; 10 µM; inhibitor
Screen size: about 3,300 compounds; about 95 (3%) showed an effect of 50% or more. Shown is part of a subset that was picked to be rich in strong results.
value.type: 229E Inhibition rate (%)
Express it in %; write the number only.

Consider the worked cases shown below.
[ask] With HCoV-229E as the test system, provide measured 229E Inhibition rate for this molecule: CC(C)=CCC[C@](C)(O)[C@H]1CC[C@]2(C)[C@@H]1[C@H](O)C[C@@H]1[C@@]3(C)C[C@@H](O)[C@H](O[C@@H]4O[C@H](CO)[C@@H](O)[C@H](O)[C@H]4O[C@@H]4O[C@H](CO)[C@@H](O)[C@H](O)[C@H]4O)C(C)(C)[C@@H]3CC[C@]12C [Gypenoside L]
[reply] 61.5

[ask] With HCoV-229E as the test system, provide measured 229E Inhibition rate for this molecule: COc1cc(OC)c(CCC(=O)c2ccc(O)cc2)c(OC)c1 [Loureirin B]
[reply] 16

[ask] With HCoV-229E as the test system, provide measured 229E Inhibition rate for this molecule: C=C(C)[C@H](CC=C(C)C)Cc1c(O)cc(OC)c2c1O[C@H](c1ccc(O)cc1OC)CC2=O [(2S)-2'-Methoxykurarinone]
[reply] 62.1

[ask] With HCoV-229E as the test system, provide measured 229E Inhibition rate for this molecule: C=C(C)[C@H](CC=C(C)C)Cc1c(O)cc(O)c2c1O[C@H](c1ccccc1O)CC2=O [Kushenol A]
[reply] 10.8

[ask] With HCoV-229E as the test system, provide measured 229E Inhibition rate for this molecule: O=C(/C=C/c1ccc(O)c(O)c1)O[C@@H]1CC(C(=O)O)=C[C@@H](O)[C@H]1O [5-O-Caffeoylshikimic acid]
[reply] 12

[ask] With HCoV-229E as the test system, provide measured 229E Inhibition rate for this molecule: C/C=C(/C)C(=O)O[C@@H]1c2c(ccc3ccc(=O)oc23)OC(C)(C)[C@@H]1OC(=O)/C(C)=C\C [(-)-Anomalin]
[reply] 51.7

New cases:
[ask] With HCoV-229E as the test system, provide measured 229E Inhibition rate for this molecule: CC1=CC(=O)[C@@H]2C[C@H]1C2(C)C [Verbenone]
[reply] 0

[ask] With HCoV-229E as the test system, provide measured 229E Inhibition rate for this molecule: CC(=O)OC[C@H]1O[C@@H](O[C@@H]2[C@@H](O)[C@H](O[C@@H]3[C@H](O)C(C)(C)C[C@H]4C5=CC[C@@H]6[C@@]7(C)CC[C@H](O[C@@H]8O[C@H](C(=O)O)[C@@H](O)[C@H](O)[C@H]8O[C@@H]8O[C@H](CO)[C@H](O)[C@H](O)[C@H]8O[C@@H]8O[C@H](CO)[C@@H](O)[C@H](O)[C@H]8O)[C@](C)(CO)[C@@H]7CC[C@@]6(C)[C@]5(C)CC[C@@]34C)OC[C@@H]2O)[C@H](OC(C)=O)[C@@H](OC(C)=O)[C@@H]1OC(C)=O [Soyasaponin Ab]
[reply] 46.7

[ask] With HCoV-229E as the test system, provide measured 229E Inhibition rate for this molecule: COc1ccc(C(=O)O)cc1O [Isovanillic acid]
[reply] 0

[ask] With HCoV-229E as the test system, provide measured 229E Inhibition rate for this molecule: CC/C=C/CC1C(=O)CCC1CC(=O)OC (stereo not drawn)
[reply] 22

[ask] With HCoV-229E as the test system, provide measured 229E Inhibition rate for this molecule: CC(=O)CCc1ccc(O[C@@H]2O[C@H](CO)[C@@H](O)[C@H](O)[C@H]2O)cc1 [Raspberry ketone glucoside]
[reply] 19.3
